assay: chemical genetic growth profiling, strain panel (AID 1159580);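 also: tested at 20 µM; growth read once vehicle control cultures reached saturation at 30 °C; lower values mean less growth of the strain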; details: S. cerevisiae deletion strains, growth OD, locus YML124C, strain tub3
About 2,000 (36%) of roughly 5,500 compounds were called active. Inconclusive results (about 18%) are left out. Rule as the data show it: active = normalized growth mostly below about 0.91 (no sharp cut-off); inconclusive = no clear call, values can overlap the other calls; inactive = mostly above about 0.92. Some of the results follow.
Hello, when you answer, please use one of the following outcomes: active, inactive

Example results:
{"columns": ["compound", "assigned-category"],
 "data": [
  ["N=C(N)c1ccc(OCCCCCOc2ccc(C(=N)N)cc2)cc1", "inactive"],
  ["CC(C)=CCCC1(C)C=Cc2c(O)c3c(c(CC=C(C)C)c2O1)OC12C(=CC4CC1C(C)(C)OC2(C/C=C(/C)C(=O)O)C4O)C3=O (stereo not given)", "inactive"],
  ["Clc1ccccc1C(c1ccccc1)(c1ccccc1)n1ccnc1", "active"]
]}

Name the outcome recorded for `CNC(=O)O/N=C\C(C)(C)SC` in the assay.
inactive

Name the outcome recorded for Fc1ccc(C(c2ccccc2)(c2ccccc2F)n2ccnc2)cc1 (stereo not given) in the assay.
active

Name the outcome recorded for NC(Cc1c[nH]c2ccccc12)C(=O)O (stereo not given) in the assay.
inactive
